# SYSTEM TESTED: F protein of human metapneumovirus strain JPS03-180 (type A1), on infectious virus (human metapneumovirus, strain JPS03-180 …)
# METHOD: cell-based or functional assay
Collected IC50, neutralizing activity (hMPV infection of LLC-MK2 cells; GraphPad Prism 6) values appear next to each entry.

| BINDER | MEASURED |
| --- | --- |
| EV046120 (antibody, human IgG1, lambda, V domains shown) VH: EVQLVESGGGLVKPGGSLRLSCAASGFTFSSYSMNWVRQAPGKGLEWVSSISSSSSYIYYADSLKGRFTVSRDNAKKSLYLQMNSLRAEDTAVYYCARVDYGTNSEVGRFDPWGQGTLVTVSS VL: QSVLTQPPSVSGTPGQRVTISCTGSSSNIGAGYAVHWYQQLPGTAPKLLIYDSINRPSGVPDRFSGSKSGTSASLAITGLQTEDEADYYCHSYDRSLSGSVFGGGTKLTVLG | 0.3 µg/mL |
| EV046147 (antibody, human IgG1, lambda, V domains shown) VH: QVQLVQSGAEVKKPGASVKVSCKASGYTFSVYGISWVRQAPGHGLEWMGWISAYNGDRGYAQKVQGRITMTTDTSASTAYMELRSLTSDDTAVYYCATTSSGVPGIYWGQGSLVTVSS VL: SYALVQPPSVSVSPGQTARITCFGPALPKKYAYWYQHKSGQAPMLVIYEDTKRPSGIPQRFSGSTSGATATLTIRGAQVEDEADYYCYSTDSSGHERVFGGGTKLTVLG | 0.326 µg/mL |
| EV046130 (antibody, human IgG1, lambda, V domains shown) VH: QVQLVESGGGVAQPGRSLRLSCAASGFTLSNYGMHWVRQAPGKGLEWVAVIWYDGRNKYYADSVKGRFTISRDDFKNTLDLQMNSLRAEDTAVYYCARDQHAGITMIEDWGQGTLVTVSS VL: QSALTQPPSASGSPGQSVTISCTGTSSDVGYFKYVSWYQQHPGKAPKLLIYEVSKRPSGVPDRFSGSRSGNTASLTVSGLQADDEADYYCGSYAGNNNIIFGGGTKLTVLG | 0.22 µg/mL |
| EV046113 (antibody, human IgG1, kappa, V domains shown) VH: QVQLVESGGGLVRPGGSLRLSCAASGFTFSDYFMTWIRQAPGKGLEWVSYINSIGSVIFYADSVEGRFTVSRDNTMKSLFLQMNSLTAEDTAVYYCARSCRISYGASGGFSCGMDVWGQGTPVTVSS VL: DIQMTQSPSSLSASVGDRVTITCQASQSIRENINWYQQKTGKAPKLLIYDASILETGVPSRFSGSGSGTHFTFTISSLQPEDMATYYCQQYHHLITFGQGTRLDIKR | 0.418 µg/mL |

Below: the item to evaluate.
IC50, neutralizing activity (hMPV infection of LLC-MK2 cells; GraphPad Prism 6) lookup needed for EV046141 (antibody, human IgG1, lambda, V domains shown) VH: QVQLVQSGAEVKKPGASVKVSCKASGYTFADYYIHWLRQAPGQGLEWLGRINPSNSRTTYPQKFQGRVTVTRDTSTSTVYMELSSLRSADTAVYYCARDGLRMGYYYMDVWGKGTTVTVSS VL: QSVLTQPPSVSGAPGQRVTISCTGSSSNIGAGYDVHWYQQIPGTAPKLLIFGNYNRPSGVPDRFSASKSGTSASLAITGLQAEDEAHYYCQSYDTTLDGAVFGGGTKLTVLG , thanks.
0.213 µg/mL
